# target-or-test-system: coumarin-labelled LMP-1 transmembrane domain 5 (TMD5) peptide (Epstein-Barr virus)
# procedure-details: FRET or BRET
No end group written: not given here.
readout-type: pKd
One number for each entry, as −log10 of the molar value.

**Q:** pKd for WWKLWYFLVWFLDLIILILLLWW (designed binder, also: FITC label, position not given here) [FITC-tagged anti-TMD5 peptide] ?
**A:** 4.40
